Reported efficacy in % values for the following molecules.
- Test system: Myzus persicae
- EXPERIMENT DESCRIPTION: Myzus test (MYZUPE spray treatment)
- Format: in vivo
- MEASUREMENT CONDITIONS: application rate 100 g/ha; Chinese cabbage leaf discs; after 6 days
Reply numerically in %, unit not repeated.

CCn1c(C(=O)NC(c2ccc(F)c(Cl)c2)C(F)(F)F)cc2cc(C(=O)NC3CC3)c(C)cc21 (centres unmarked)	90

Prompt: Request - read-out efficacy in % | tested on Myzus persicae | molecule CCn1c(C(=O)NC(c2cccc(Br)c2)C(F)(F)F)cc2cc(C(=O)NC3CC3)c(Cl)cc21 (centres unmarked)
Completion: 90

Prompt: Query efficacy in % on Myzus persicae for C=CCN(C(=O)c1cc2nc(C(=O)NC(c3ccc(F)c(Cl)c3)C(F)(F)F)n(CC=C)c2cc1Cl)C1CC1 (centres unmarked)
Completion: 90

Prompt: // map CCn1c(C(=O)NC(c2cccc(C(F)(F)F)c2)C(F)(F)F)cc2cc(C(=O)NC3(C#N)CC3)c(C)cc21 (centres unmarked) to recorded efficacy in % (system: Myzus persicae)
Completion: 90

Prompt: API: value(readout=efficacy in %, system=Myzus persicae) for record C#CCn1c(C(=O)NC(c2cccc(C(F)(F)F)c2)C(F)(F)F)cc2cc(C(=O)NC3(C#N)CC3)c(C)cc21 (centres unmarked)
Completion: 90

Prompt: Hello, I am looking for reported efficacy in % with Myzus persicae for O=C(NC1CC1)c1cc2nc(C(=O)NC(c3ccc(F)c(C(F)(F)F)c3)C(F)(F)F)n(C3CC3)c2cc1Br (centres unmarked) . Could you help?
Completion: 100

Prompt: Field: efficacy in % (Myzus persicae). Entry: CCn1c(C(=O)NC(c2ccc(F)c(F)c2)C(F)(F)F)cc2cc(C(=O)NC3CC3)c(C)cc21 (centres unmarked)
Completion: 90
